The reported measurements were obtained from ChEMBL document CHEMBL4364260.

Reported selectivity ratio at 120 h values for a set of molecules
# ASSAY NOTES: Therapeutic index, ratio of CC50 of human Hep2 cells to EC50 for antiviral activity against human respiratory syncytial virus long strain infected in human Hep2 cells after 5 days by CCK-8 assay
# Type: toxicity, cell-based
# APPLIED CONDITIONS: HEp-2 cells, read-out: Ratio CC50/EC50

NC1(CNc2cc(N3CCS(=O)(=O)c4ccccc4C3)nc3ccc(CO)cc23)COC1 | > 50000
COc1ccc2c(c1)S(=O)(=O)CCN(c1cc(NCC3(N)COC3)c3ccccc3n1)C2 | > 12500
Cc1ccc2nc(N3CCS(=O)(=O)c4ccccc4C3)cc(NCC3(N)COC3)c2c1 | > 50000

Please fill in: selectivity ratio at 120 h reported for `CC(C)(O)c1ccc2nc(N3CCS(=O)(=O)c4ccccc4C3)cc(NCC3(N)COC3)c2c1` = < 1
